Tested on: CCRF-CEM leukemia
Test: NCI tumour cell line growth inhibition, 48 h
property measured: GI50

- smiles representation: "CCN1CCN(c2nc(NCCCNc3ccnc4cc(Cl)ccc34)c3ccccc3n2)CC1"
  GI50: "2880 nM"
- smiles representation: "Cc1ccn2c3c(c(C(=O)O)c2c1)C(=O)c1ccccc1C3=O"
  GI50: "> 100000 nM"
- smiles representation: "CN1CCN(Cc2ccc(C(=O)Nc3cncc(C#Cc4cnc(N)c5ccccc45)c3)cc2C(F)(F)F)CC1"
  GI50: "2910 nM"
- smiles representation: "NC(N)=N/N=C(/c1ccccc1)c1ccc(F)cc1"
  GI50: "493 nM"
- smiles representation: "Cc1nn(-c2ccc(S(=O)(=O)[O-])cc2)c([O-])c1N=[N+](C)c1ccc(-c2ccc(N=Nc3ccc4c(S(=O)(=O)[O-])cc(S(=O)(=O)[O-])c(N)c4c3[O-])c([O-])c2)cc1[O-].[Cu+2].[Cu+2].[Na+]"
  GI50: "> 100000 nM"
- smiles representation: "CCCCCCCCCCCCCC(=S)NCCCC[C@H](NC(=O)OCc1ccccc1)C(=O)Nc1ccccc1"
  GI50: "4040 nM"

Each compound below has a recorded value; state its GI50.
1. Cc1nn(-c2ccc(F)cc2)c2ncnc(Nc3ccc(NC(=O)Nc4ccc(Cl)c(C(F)(F)F)c4)cc3)c12
2. O=C(Nc1cccc(-n2ccc3c(NC(=O)c4ccccc4)nccc32)c1)c1cccc(C(F)(F)F)c1

Response:
["1570 nM", "35.8 nM"]
